# Tested on: Pseudomonas fluorescens HPPD polypeptide (wild-type and mutants)
# ASSAY_NOTES: Coupled HPPD activity assay: turnover and residual turnover in crude HPPD polypeptide extracts with and without Cmpd. 1
# Type: biochemical
# RECORDED_CONDITIONS: presence of 100 μM Cmpd. 1; changes in absorbance (OD) at 320 nm in the coupled assay, 30 min
MEASUREMENT_LABEL: Residual turnover
Please reply with the value in numeric form only.

The value of Residual turnover measured for the molecule SEQ ID NO:61 (protein, mutant HPPD polypeptide) MADLYENPMGLMGFEFIEFASPTPGTLEPIFEIMGFTKVATHRSKNVHLYRQGEINLILNNEPNSIASYFAAEHGPSVCGMAFRVKDSQKAYNRALELGAQPIHIDTGPMELNLPAIKGIGGAPLYLIDRFGEGSSIYDIDFVYLEGVERNPVGAGLKVIDHLTHNVYRGRMVYWANFYEKLFNFREARYFDIKGEYTGLTSKAMSAPDGMIKIPLNEESSKGAGQIEEFLMQFNGEGIQHVAFLTDDLVKTWDALKKIGMRFLTAPGDEYYEMLEGRLPDHGEPVDQLQARGILLDGSSVEGDKRLLLQIFSEQLMGPVFFEFIQRKGDDGFGPDSFKVLFEQMERDQVRRGVLTAD turned out to be 0.116
